Source: the Kinase Knowledgebase extract (Sharma et al. 2016)

biological target: MAPK14 (human) (UniProt Q16539); test: Inhibition of MAPK14 Kinase Activity; details: Monocyte
Sequence (Q16539 whole entry, looked up): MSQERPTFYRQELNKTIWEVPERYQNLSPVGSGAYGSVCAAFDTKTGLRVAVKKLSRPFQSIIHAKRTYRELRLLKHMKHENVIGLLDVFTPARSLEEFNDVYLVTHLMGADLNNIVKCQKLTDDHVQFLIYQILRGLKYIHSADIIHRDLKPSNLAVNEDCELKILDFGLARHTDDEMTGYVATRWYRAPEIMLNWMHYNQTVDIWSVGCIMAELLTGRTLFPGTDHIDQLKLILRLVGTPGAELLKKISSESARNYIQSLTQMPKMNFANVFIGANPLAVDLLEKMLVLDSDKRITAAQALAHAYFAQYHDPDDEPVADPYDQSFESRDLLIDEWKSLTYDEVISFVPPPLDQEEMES
Measurement Label: IC50

Below, 4 compounds whose answers are already recorded.
{"Compound": "Cc1cc(OCc2ccc(F)cc2F)c(Br)c(=O)n1Cc1ccc(C(=O)NCCO)o1", "IC50": "1000 to 25000 nM"}
{"Compound": "Cc1cc(OCc2ccc(F)cc2F)c(Br)c(=O)n1Cc1cnc(N(C)C)nc1", "IC50": "< 1000 nM"}
{"Compound": "Cc1cc(OCc2ccc(F)cc2F)c(Br)c(=O)n1-c1c(F)cc(C(O)COC(N)=O)cc1F (stereo not given)", "IC50": "< 1000 nM"}
{"Compound": "Cc1cc(OCc2ccc(F)cc2F)c(Br)c(=O)n1-c1ccc(C(=O)N(C)C)cc1C(F)(F)F", "IC50": "1000 to 25000 nM"}

Alright, here's another compound for you.
Q: Please report the measured IC50 for Cc1ccc(C(N)=O)cc1-n1c(C)cc(OCc2ccc(F)cc2F)c(Br)c1=O
Ans: < 1000 nM
